The measurements presented in this section are drawn from BindingDB's records for patent US20250313563.

Below are IC50 values measured for Glycogen synthase kinase-3 alpha (Homo sapiens).

CC1(C)CC(=O)C2=C(C1)NC1=C(CN=N1)[C@]21C[C@@H](OCc2ccccc2)C1 [US20250313563, Compound 909211] :: < 100 nM
CCC1(c2cccc(N(C)c3ccnn3C)c2)C2=CN=NC2NC2=C1C(=O)CC(C)(C)C2 (stereo unspecified) [US20250313563, Compound 889604] :: 100 to 1000 nM
CC1(C)CC(=O)C2=C(C1)NC1N=NC=C1[C@]21CCCc2c(-c3ccncc3)cccc21 (stereo partly specified) [US20250313563, Compound 945548] :: < 100 nM
CC[C@@]1(c2cccc(N(C)c3ncccn3)c2)C2=CN=NC2NC2=C1C(=O)CC(C)(C)C2 (stereo partly specified) [US20250313563, Compound 911981] :: < 100 nM
CC[C@]1(c2cccc(-c3ccnc(C)c3)c2)C2=CN=NC2NC2=C1C(=O)N[C@@H](C)C2 (stereo partly specified) [US20250313563, Compound 932658] :: < 100 nM
CC1(C)CC(=O)C2=C(C1)NC1=C(CN=N1)[C@@]21CCOC2(CCCC2)C1 [US20250313563, Compound 907326] :: 100 to 1000 nM
CC[C@]1(c2cccc(-c3ccncc3F)c2)C2=C(CC(C)(C)NC2=O)NC2N=NC(F)=C21 (stereo partly specified) [US20250313563, Compound 949643] :: > 5000 nM
CC1(C)CC(=O)C2=C(C1)NC1=C(CN=N1)[C@]21CCOC(C)(C)C1 [US20250313563, Compound 924298] :: 1000 to 5000 nM
CC[C@]1(c2cccc(-c3ccnc(C)c3)c2)C2=CN=NC2NC2=C1C(=O)N[C@]1(CCCOC1)C2 (stereo partly specified) [US20250313563, Compound 948146] :: 1000 to 5000 nM
CC1(C)CC(=O)C2=C(C1)NC1=C(CN=N1)C21CN(S(=O)(=O)C2CCCCC2)C1 [US20250313563, Compound 918275] :: < 100 nM

Form: item CCC1(c2cccc(N(C)C(O)C3CC3)c2)C2=CN=NC2NC2=C1C(=O)CC(C)(C)C2 (stereo unspecified) [US20250313563, Compound 912067] ; test system Glycogen synthase kinase-3 alpha (Homo sapiens); IC50: < 100 nM

Form: item CC[C@]1(c2cccc(C(F)(F)F)c2)C2=CN=NC2NC2=C1C(=O)C[C@]1(CCNC1=O)C2 (stereo partly specified) [US20250313563, Compound 950333] ; test system Glycogen synthase kinase-3 alpha (Homo sapiens); IC50: < 100 nM

Form: item CC1(C)CC(=O)C2=C(C1)NC1N=NC=C1[C@@]21CCc2c(F)cccc21 (stereo partly specified) [US20250313563, Compound 806632] ; test system Glycogen synthase kinase-3 alpha (Homo sapiens); IC50: > 1670 nM

Form: item CC1(C)CC(=O)C2=C(C1)NC1=C(CN=N1)C21COC2(CN(C(=O)OC(C)(C)C)C2)C1 (stereo unspecified) [US20250313563, Compound 911083] ; test system Glycogen synthase kinase-3 alpha (Homo sapiens); IC50: 100 to 1000 nM

Form: item CC1(C)CC(=O)C2=C(C1)NC1=C(CN=N1)C21CN(c2ccccc2)C1 [US20250313563, Compound 948298] ; test system Glycogen synthase kinase-3 alpha (Homo sapiens); IC50: < 100 nM

Form: item CCC1(c2cccc(-c3ccnn3C)c2)C2=CN=NC2NC2=C1C(=O)NC(C)(C)C2 (stereo unspecified) [US20250313563, Compound 914971] ; test system Glycogen synthase kinase-3 alpha (Homo sapiens); IC50: < 100 nM

Form: item CC(=O)N1C[C@]2(C[C@]3(CO2)C2=C(N=NC2)NC2=C3C(=O)CC(C)(C)C2)[C@H]1C [US20250313563, Compound 948439] ; test system Glycogen synthase kinase-3 alpha (Homo sapiens); IC50: < 100 nM

Form: item CC[C@@]1(c2cccc(-c3cnn(CC4CCOC4)c3)c2)C2=CN=NC2NC2=C1C(=O)NC(C)(C)C2 (stereo partly specified) [US20250313563, Compound 951836] ; test system Glycogen synthase kinase-3 alpha (Homo sapiens); IC50: 100 to 1000 nM

Form: item CC1(C)CC(=O)C2=C(NC3N=NC=C3C23CCOCC3)[C@H]1F (stereo partly specified) [US20250313563, Compound 883833] ; test system Glycogen synthase kinase-3 alpha (Homo sapiens); IC50: 100 to 1000 nM

Form: item CC1(C)CC(=O)C2=C(C1)NC1=C(CN=N1)C21CN(Cc2ccccc2)C1 [US20250313563, Compound 929436] ; test system Glycogen synthase kinase-3 alpha (Homo sapiens); IC50: > 5000 nM

Form: item CCC1(c2cccc(N3CCNCC3)c2)C2=CN=NC2NC2=C1C(=O)CC(C)(C)C2 (stereo unspecified) [US20250313563, Compound 806604] ; test system Glycogen synthase kinase-3 alpha (Homo sapiens); IC50: > 1670 nM
